Values were extracted from PubChem BioAssay (Tox21).

Experiment: qHTS RealTime-Glo MT Cell Viability Assay in HEK293 cells - 24 hour (AID 1224886); further: nearly all actives have a fitted effect of over 50% in size
Conditions: RealTime-Glo luminescence; series mostly up to 76.8 µM
Results filed as inconclusive are left out. The source made the active and inactive calls. The call rests on the fitted dose curve; in most records, active means well fitted cell-killing curve with a large enough effect in the repeat runs; inconclusive means weak or mixed curves, or effect the other way; inactive means flat fitted curve, though single readings scatter.
Outcome codes: active, inactive

1) C[C@]12CC[C@H](O)C[C@H]1CC[C@@H]1[C@@H]2C[C@@H](O)[C@]2(C)[C@@H](C3=CC(=O)OC3)CC[C@]12O = active
2) CCCCCCCCCC[N+](C)(C)CCCCCCCCCC = active
3) Cc1cc(Cl)ccc1O[C@H](C)C(=O)O = inactive
4) C=COCCCl = inactive
5) C=CC(=O)OCCCCOC(=O)C=C = active
6) C=CCC1=C(C)C(OC(=O)C2C(C=C(C)C)C2(C)C)CC1=O (stereo unspecified) = active

* * *

Test: A CellTox Green Cytotoxicity Assay to monitor cytotoxicity in HEK293 cells - 16 hour (AID 1224888); further: nearly all actives have a fitted effect of over 35% in size
Conditions: CellTox Green fluorescence; series mostly up to 76.8 µM
Records with an inconclusive call do not appear. Active and inactive are the calls of the source. The call rests on the fitted dose curve; in most records, active means well fitted activation curve with a large enough effect in the repeat runs; inconclusive means weak or mixed curves; inactive means flat fitted curve, though single readings scatter.
Outcome codes: active, inactive

1. CCN(CC)c1c([N+](=O)[O-])cc(C(F)(F)F)c(N)c1[N+](=O)[O-] = inactive
2. [Cl][Sb]([Cl])[Cl] = inactive
3. O=C1NCN(c2ccccc2)C12CCN(CC1COc3ccccc3O1)CC2 (configuration not stated) = inactive
4. Oc1cccc(-c2ccccc2)c1 = inactive
5. ClCCN1CCOCC1 = inactive
6. Cc1c(Cl)c(=O)oc2cc(OP(=O)(OCCCl)OCCCl)ccc12 = inactive
7. CC(=O)C(Cl)(Cl)Cl = inactive
8. CN(CCCC(O)c1cccnc1)N=O (configuration not stated) = inactive
9. CCSC(C)CC1CC(=O)C(/C(CC)=N/OC/C=C/Cl)=C(O)C1 (configuration not stated) = inactive
10. Cc1cc(C(F)(C(F)(F)F)C(F)(F)F)ccc1NC(=O)c1cccc(I)c1C(=O)NC(C)(C)CS(C)(=O)=O = inactive
11. COC(=O)N(C(=O)N1CO[C@@]2(C(=O)OC)Cc3cc(Cl)ccc3C2=N1)c1ccc(OC(F)(F)F)cc1 = inactive
12. CCCCCCCCCCCCCCCC[n+]1ccccc1 = active
13. CC(C)(C)C(O)C(Oc1ccc(-c2ccccc2)cc1)n1cncn1 (configuration not stated) = inactive
14. C=CC(=O)OCCCCOC(=O)C=C = inactive
15. CCCCCCCCCCCCCCC(Br)C(=O)O (configuration not stated) = inactive
16. C=COCCCl = inactive
17. C[C@]12CC[C@@H]3c4ccc(OC(=O)N(CCCl)CCCl)cc4CC[C@H]3[C@@H]1CC[C@@H]2O = inactive
18. COCC(=O)N(c1c(C)cccc1C)[C@H](C)C(=O)OC = inactive
19. CC[C@H]1C[C@@H]2C[C@H]3c4[nH]c5ccc(OC)cc5c4CCN(C2)[C@@H]13 = inactive
20. C[CH2][Hg][N]1C(=O)C2C(C1=O)C1(Cl)C(Cl)=C(Cl)C2(Cl)C1(Cl)Cl (configuration not stated) = active
21. C[C@H]1CC[C@@H]2[C@@H](C)[C@H]3[C@H](C[C@H]4[C@@H]5CC=C6CC(O[C@@H]7O[C@H](CO)[C@H](O)[C@H](O[C@@H]8O[C@H](CO)[C@@H](O)[C@H](O)[C@H]8O)[C@H]7O[C@H]7O[C@@H](C)[C@H](O)[C@@H](O)[C@H]7O)CC[C@]6(C)[C@H]5CC[C@]34C)N2C1 (some centres not stated) = active
22. COc1ccc(N)cc1N = inactive

* * *

Target: Acetylcholinesterase (Homo sapiens) (UniProt P22303)
Sequence (P22303 whole entry, looked up): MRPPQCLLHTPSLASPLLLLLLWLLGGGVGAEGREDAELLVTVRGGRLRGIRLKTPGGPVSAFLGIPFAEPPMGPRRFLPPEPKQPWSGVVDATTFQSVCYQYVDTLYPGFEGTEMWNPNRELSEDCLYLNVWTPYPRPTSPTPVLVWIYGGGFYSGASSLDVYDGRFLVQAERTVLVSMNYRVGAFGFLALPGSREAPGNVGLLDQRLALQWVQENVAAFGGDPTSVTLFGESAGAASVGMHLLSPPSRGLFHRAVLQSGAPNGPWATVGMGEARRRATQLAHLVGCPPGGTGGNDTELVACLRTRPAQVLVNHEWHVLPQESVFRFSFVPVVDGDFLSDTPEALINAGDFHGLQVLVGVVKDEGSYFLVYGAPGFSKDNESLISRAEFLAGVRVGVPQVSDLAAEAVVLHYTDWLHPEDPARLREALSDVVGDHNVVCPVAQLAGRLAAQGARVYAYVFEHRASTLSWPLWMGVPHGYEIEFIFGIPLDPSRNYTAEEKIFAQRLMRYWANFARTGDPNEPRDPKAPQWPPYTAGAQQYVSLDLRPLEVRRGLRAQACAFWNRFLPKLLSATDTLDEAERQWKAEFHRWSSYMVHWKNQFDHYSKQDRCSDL
Experiment: Acetylcholinesterase (AChE) small molecule antagonists: fluorescence cell-based qHTS assay (AID 1347398); further: nearly all actives have a fitted effect of over 50% in size
Settings: SH-SY5Y cells; AChE activity; series mostly up to 115 µM
Records with an inconclusive call do not appear. Activity calls are given as the source filed them. Calls follow the shape of the full dose curve.
Outcome codes: T for active, F for inactive

1) Oc1c(Br)c(Br)c(Br)c(Br)c1Br = F
2) CC1(C)[C@H](C(=O)O[C@H](C#N)c2cccc(Oc3ccccc3)c2)[C@@H]1/C=C(\Cl)C(F)(F)F = F
3) CCC[CH2][Sn]([CH2]CCC)([CH2]CCC)[O]C(=O)c1ccccc1 = F
4) COc1cc(C=O)cc2c1[C@H](COC(N)=O)[C@]1(OC(C)=O)ON2C[C@H]2[C@@H]1N2C(C)=O = F
5) O=C/C(Cl)=C(/Cl)C(=O)O = F
6) BrCC(Br)c1ccccc1 (configuration not stated) = F
7) ClC1=C(Cl)[C@]2(Cl)[C@@H]3[C@@H](Cl)[C@@H](Cl)C[C@@H]3[C@@]1(Cl)C2(Cl)Cl = F
8) CC(C)[C@H](C(=O)O[C@H](C#N)c1cccc(Oc2ccccc2)c1)c1ccc(Cl)cc1 = F
9) CCOP(=S)(OCC)SCS(=O)(=O)CC = T
10) ClCc1ccc(Cl)cc1Cl = F
11) O=c1ssc(Cl)c1Cl = F
12) COc1ccc(OC)c(CC(C)N)c1 (configuration not stated) = F

* * *

Test system: estrogen-related receptor alpha (ERRalpha) with PGC-1alpha coactivator, human
Assay: qHTS assay to identify small molecule antagonists of the estrogen related receptor signaling pathway with the pleiotropic PPARgamma coactivator (PGC) (AID 1224821); further: nearly all actives have a fitted effect of over 50% in size
Details: ERR/PGC reporter cell line, luciferase, antagonist mode; series mostly up to 92.2 µM
Inconclusive results are not listed. Active and inactive are the calls of the source. Calls follow the shape of the full dose curve.
Outcome codes: t = active, f = inactive

1. Nc1ccc(Sc2ccc(N)cc2)cc1 = f
2. O=c1[nH]c2ccccc2n1C1CCN(CCCC(c2ccc(F)cc2)c2ccc(F)cc2)CC1 = t
3. CCOCCOC(C)=O = f
4. O=[N+]([O-])c1cc([N+](=O)[O-])c2ccccc2c1 = f
5. O=[N+]([O-])c1c2ccccc2cc2ccccc12 = f
6. CS(=O)(=O)c1ccc(C(=O)C2C(=O)CCCC2=O)c([N+](=O)[O-])c1 = f

* * *

Experiment: qHTS assay to identify small molecule agonists of the NFkB signaling pathway - cell viability counter screen (AID 1159515); further: nearly all actives have a fitted effect of over 55% in size
Settings: NFkB-bla ME-180 viability, CellTiter-Glo luminescence, 5 h; series mostly up to 61 µM
Records with an inconclusive call do not appear. Activity calls are given as the source filed them. Calls follow the shape of the full dose curve.
Outcome codes: Y (active), N (inactive)

1. CC1(c2ccc(Oc3ccccc3)cc2)OC(=O)N(Nc2ccccc2)C1=O (stereo not drawn) = N
2. O=c1oc2ccccc2c(O)c1Cc1c(O)c2ccccc2oc1=O = N
3. Clc1ccc(CCC(Cn2ccnc2)Sc2c(Cl)cccc2Cl)cc1 (stereo not drawn) = Y
4. [CH3][Hg][Cl] = Y
5. C[C@@H]1CC[C@@]2(OC1)O[C@H]1[C@@H](O)[C@H]3[C@@H]4CC[C@H]5C[C@@H](O[C@@H]6O[C@H](CO)[C@H](O[C@@H]7O[C@H](CO)[C@@H](O)[C@H](O[C@@H]8OC[C@@H](O)[C@H](O)[C@H]8O)[C@H]7O[C@@H]7O[C@H](CO)[C@@H](O)[C@H](O[C@@H]8O[C@H](CO)[C@@H](O)[C@H](O)[C@H]8O)[C@H]7O)[C@H](O)[C@H]6O)[C@H](O)C[C@]5(C)[C@H]4CC[C@]3(C)[C@H]1[C@@H]2C = Y
6. CN(C)C(=S)S = Y
7. O=C(CCl)Nc1ccccc1 = N
8. O=c1ssc(Cl)c1Cl = Y

* * *

Biological target: Progesterone receptor (Homo sapiens) (UniProt P06401)
Sequence (P06401 whole entry, looked up): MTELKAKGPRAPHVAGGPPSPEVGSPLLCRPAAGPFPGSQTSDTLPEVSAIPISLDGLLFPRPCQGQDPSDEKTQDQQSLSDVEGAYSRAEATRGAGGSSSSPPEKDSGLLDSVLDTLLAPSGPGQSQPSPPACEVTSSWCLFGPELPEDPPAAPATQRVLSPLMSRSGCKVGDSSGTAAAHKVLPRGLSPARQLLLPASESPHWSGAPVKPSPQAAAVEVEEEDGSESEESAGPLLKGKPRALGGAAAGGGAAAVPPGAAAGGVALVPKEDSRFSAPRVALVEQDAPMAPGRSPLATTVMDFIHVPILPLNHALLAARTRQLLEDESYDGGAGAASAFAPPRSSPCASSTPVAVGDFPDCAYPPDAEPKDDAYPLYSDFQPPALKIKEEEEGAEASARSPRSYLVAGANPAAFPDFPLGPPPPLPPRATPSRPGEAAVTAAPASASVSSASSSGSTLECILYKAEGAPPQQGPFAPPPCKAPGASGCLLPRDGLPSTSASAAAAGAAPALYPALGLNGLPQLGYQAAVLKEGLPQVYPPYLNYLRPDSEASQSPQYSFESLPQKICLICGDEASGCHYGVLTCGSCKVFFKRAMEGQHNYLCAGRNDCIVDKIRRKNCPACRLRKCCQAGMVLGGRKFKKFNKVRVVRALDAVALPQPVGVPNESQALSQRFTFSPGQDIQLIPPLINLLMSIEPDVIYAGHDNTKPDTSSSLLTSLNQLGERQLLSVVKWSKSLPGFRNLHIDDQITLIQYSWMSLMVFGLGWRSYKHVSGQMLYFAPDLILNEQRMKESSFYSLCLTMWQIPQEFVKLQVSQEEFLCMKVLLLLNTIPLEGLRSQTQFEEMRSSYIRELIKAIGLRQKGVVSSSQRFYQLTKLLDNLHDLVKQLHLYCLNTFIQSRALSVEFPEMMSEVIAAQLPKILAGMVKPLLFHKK
Assay: qHTS assay to identify small molecule antagonists of the progesterone receptor (PR) signaling pathway (AID 1346795)
Conditions: PR-UAS-bla HEK293T, beta-lactamase FRET ratio, 16 h; series mostly up to 92.4 µM
Records with an inconclusive call do not appear. Calls of active or inactive are those of the source. The call rests on the fitted dose curve; in most records, active means well fitted inhibition curve with a large enough effect in the signal ratio in the repeat runs (not every such curve was filed as active); inconclusive means weak or mixed curves; inactive means flat fitted curve, though single readings scatter; the % refers to the signal ratio.
Outcome codes: true = active, false = inactive

1) CC(C)(C)C(O)C(Oc1ccc(-c2ccccc2)cc1)n1cncn1 (configuration not stated) = true
2) O=C/C(Cl)=C(/Cl)C(=O)O = false
3) CN(C)CCc1c[nH]c2ccc(O)cc12 = true
4) BrCC(Br)c1ccccc1 (configuration not stated) = false
5) O=CC(Br)(Br)Br = false
6) O=C(O)c1cc[c]([Hg][Cl])cc1 = true
7) c1ccc(OCC2CO2)cc1 (configuration not stated) = false
8) CC(C)CBr = false
9) C=CC(=O)N(C)C = false
10) ClC(Cl)=C(Cl)Cl = false
11) O=C1C=CC(=O)c2ccccc21 = false
12) CCCCCCCCCCBr = false

* * *

Experiment: qHTS assay to identify small molecule agonists of the farnesoid-X-receptor (FXR) signaling pathway - cell viability counter screen (AID 743218); further: nearly all actives have a fitted effect of over 45% in size
Settings: FXR-bla HEK293T viability, CellTiter-Glo luminescence, 16 h; series mostly up to 62.6 µM
Records with an inconclusive call do not appear. The source made the active and inactive calls. The call rests on the fitted dose curve; in most records, active means well fitted cell-killing curve with a large enough effect in the repeat runs; inconclusive means weak or mixed curves, or effect the other way; inactive means no such curve, though single readings can be large or run the other way.
Outcome codes: true (1) = active, false (0) = inactive

1. N#CNC#N = false (0)
2. O=C(CBr)c1ccc(O)cc1 = false (0)
3. CCOP(=S)(OCC)OC(Cl)C(Cl)(Cl)Cl (configuration not stated) = false (0)
4. Clc1ccc(-c2ccc(Cl)c(Cl)c2Cl)c(Cl)c1Cl = true (1)
5. NNC(=O)c1ccccc1 = false (0)
6. CCCCCCCCCCCCCCC(Br)C(=O)O (configuration not stated) = true (1)
7. C[C@]12Cc3nonc3C[C@@H]1CC[C@@H]1[C@@H]2CC[C@@]2(C)[C@H]1CC[C@]2(C)O = false (0)
